target: T1, 006 PSMA Fab; experiment: clonal phage ELISA; biotinylated PSMA Fab on neutravidin plate, anti-M13-HRP detection
T1 construct: Biotinylated and captured on neutravidin-coated plates in the phage ELISA; also called Anti-PSMA Fab
Overview of reported phage binding ELISA signal across a group of binders:
Lab note: jot the number down without any unit.

[[record]]
binder = "LGIWCIPEWMCVSA [Phage-2381]"
endpoint_result = 1.39


State the recorded phage binding ELISA signal for this entry: DFMRCTPEWMCTGF [Phage-2382]
1.39

State the recorded phage binding ELISA signal for this entry: PDKWCIPQWMCDIT [Phage-2376]
1.39

State the recorded phage binding ELISA signal for this entry: VQKWCIPPWMCQIS [Phage-2380]
1.39

State the recorded phage binding ELISA signal for this entry: VEKWCKPEWMCTSL [Phage-2386]
1.38

State the recorded phage binding ELISA signal for this entry: DGKWCIPPWMCAMA [Phage-2375]
1.4
